Biological target: T1, 4H3920-AA
T1 chain: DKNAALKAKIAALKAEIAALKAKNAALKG
Assay: two-hybrid library CCmax;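 note: natural log of median RNA to DNA barcode read ratio; higher means stronger binding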
Conditions: mean of both orientations
Property: interaction score
Answer field: number only, no words.

Some binders with known interaction score results, for comparison:
{"columns": ["Binder", "interaction score"],
 "data": [
  ["DKIAALEAENAALKAEIAALEAKNAALKG [4H2248-AA]", -1.51],
  ["DENAALEAEIAALKAENAALEAKIAALEG [4H1109-AA]", -1.35]
]}

Proceed to the following item.
So for DKIAALKAKNAALKAKNAALKAEIAALKG [4H3066-AA] , the logged interaction score turned out to be -1.87
